The measurements presented in this section are drawn from a melting point compilation (Tetko et al.; mined from patent text by program, amines drawn as free bases though some values may be those of a salt).

Measure: melting point

Problem: Suppose we examine the molecule `COC(=O)COc1ccc2ccc(O)c(C(C)=O)c2c1` ; what melting point value has been reported?
Solution: 113 to 114 °C

Problem: Any idea what its melting point is? The molecule is `Cc1ccccc1C(=O)Nc1ccc(-n2nc(C3CC3)cc2C2CC2)cc1`
Solution: 128 to 130 °C

Problem: State the recorded melting point for this entry: `Cc1cccc2c1NC(=O)C2(c1ccc(O)cc1)c1ccc(O)cc1`
Solution: 272 to 274 °C

Problem: Name the recorded melting point for `O=C(O)CCc1cc(F)cc(F)c1` .
Solution: 56 °C

Problem: Need melting point of `CCCNC(=S)N1CCc2[nH]cnc2C1` , thanks.
Solution: 151 °C

Problem: State the recorded melting point for this entry: `O=C1c2ccccc2N(Cc2cccs2)C2=NCCN12`
Solution: 124 to 127 °C

Problem: Report melting point for CO[C@@H]1OC(C)(C)O[C@@]1(C)c1cccc(OCc2ccc3ccccc3c2)c1 (racemic) please.
Solution: 100 to 103 °C

Problem: Look up melting point: `O=C(CNS(=O)(=O)c1ccc(N2CCC(c3ccccc3)CC2)cc1)NO`
Solution: 164 to 166 °C

Problem: Returns the measured melting point for the input molecule. Input: `O=C(CCc1cccc(C(F)(F)F)c1)NNC(=O)c1ccc2ncsc2c1`
Solution: 206 to 207 °C

Problem: Query: melting point; subject: `COC(=O)c1ccccc1NC(=O)CCl`
Solution: 97 to 99 °C

Problem: What measured melting point goes with COc1cc2c(cc1OC)C1C(CO)CSC(C=N)N1CC2 (centres undefined) ?
Solution: 149 to 151 °C

Problem: I have this molecule here, COC(=O)C(OC)C(=S)Nc1cc(Cl)cc(Cl)c1 (centres undefined) , and I need its recorded melting point.
Solution: 144 to 147 °C

Problem: What does the data say about its melting point? Entry: NC(=O)Cc1ccc(CCCOCCCCCCNCC(O)c2cc(Cl)c(N)c(Cl)c2)cc1 (centres undefined)
Solution: 104 to 106 °C

Problem: Look up melting point for this molecule: `COc1ccc(-c2sc(NC(C)=O)nc2C)cc1S(N)(=O)=O`
Solution: 342 °C

Problem: Data request, read-out melting point, for `NC(=O)c1ccccc1NC(=O)c1ccc(Cl)cc1`
Solution: 205 to 207 °C

Problem: May I ask what melting point has been recorded for `COc1cc2c(Nc3ccc(Sc4nccn4C)c(Cl)c3)c(C#N)cnc2cc1N1CCN(CCn2ccnc2)CC1` ?
Solution: 251 to 253 °C

Problem: Field request: melting point | item: `Cc1cc(Cl)cc2c1OCC(/C=C/C=C/C=C/C(=O)O)=C2`
Solution: 208 to 210 °C

Problem: Looking for the measured melting point of `CNC(=O)N(Cc1ccc(OCCc2nc(-c3ccccc3)oc2C)cc1)OC(=O)OC` , can you help?
Solution: 134 to 135 °C

Problem: Look up melting point for this molecule: `CC(C)=CCOc1ccc(C(=O)C=Cc2ccc(F)cc2)c(O)c1`
Solution: 96 to 97 °C

Problem: # lookup: melting point of `CCCCCCCCc1ncc(-c2ccc(OC(=O)[C@H]3CCCO3)cc2)cn1`
Solution: 68 °C

Problem: Give the measured melting point of COC(=O)C(Cc1ccc([N+](=O)[O-])c(OCc2ccccc2)c1)NC(=O)OC(C)(C)C (centres undefined) .
Solution: 104 to 105 °C

Problem: Would you mind telling me what melting point value was observed for `CC1=NN(C)c2nc(C)c(CCN3CCN(c4n[nH]c5ccccc45)CC3)c(=O)n2C1` ?
Solution: 199 °C

Problem: Look up melting point: CC(=O)OCc1ccc(CC(C)NCC(O)c2ccccc2)cc1 (centres undefined)
Solution: 78 to 82 °C

Problem: Would you kindly share the measured melting point for `COc1ccc2c(Cc3nc4c(F)c(F)cc(F)c4s3)cn(CC(=O)O)c2c1` ?
Solution: 118 to 120 °C

Problem: For the molecule `O=C1Nc2cc(C(F)(F)F)ccc2C1=O` , what melting point is on record?
Solution: 196 to 198 °C

Problem: Find the recorded melting point belonging to `COc1cc(Nc2nccc(-c3cncs3)n2)cc(OC)c1OC` and report it.
Solution: 171 °C

Problem: Entry COc1ccc(OC)c2c1CCC(Nc1ccc(O)cc1)C2 (centres undefined) has what melting point?
Solution: 188 to 189 °C

Problem: GET /values?readout=melting point&item= OC(COc1ccc(Cl)cc1)CN1CCN(c2ncccc2F)CC1 (centres undefined)
Solution: 73 to 76 °C

Problem: Could you share which melting point value was measured for `CC1(C)OC(c2ccc(S(N)(=O)=O)cc2)=C(c2cc3ccccc3o2)C1=O` ?
Solution: 143 to 145 °C
